Reported IC50 by item:
Tested on: Plasmodium berghei
Assay: Luciferase/luciferin-expressing antifolate-resistant parasites were used to infect a culture of HepG2 cells that were pre-incubated with compounds. Infected hepatocytes emit light due to the luciferase reaction. Assay results are presented as the percent inhibition of light emission compared to control. […]
Assay type: functional
Conditions: sporozoite, read-out: LUCIFERASE INFECTION ASSAY - IC50

COMPOUND: CC(OC(=O)c1ccccc1NS(=O)(=O)c1ccc2c(c1)OCCO2)C(=O)Nc1ccc([N+](=O)[O-])cc1C(F)(F)F (stereo not drawn)
IC50: > 10 µM

// query IC50 value for entry CCC(CC)c1nnc(NC(=O)/C=C/c2cn(-c3ccccc3)nc2-c2ccc(F)cc2)s1
> 10 µM

Which IC50 value belongs to COCC/N=c1\scc(-c2ccc(OC(F)F)cc2)n1/N=C/c1ccccc1Cl ?
> 10 µM

IC50 lookup needed for N#Cc1ccc(N2CCCN(C(=O)Nc3cc(Cl)cc(Cl)c3)CC2)nc1 , thanks.
> 8.46 µM

Param item = Cc1cc(C(C)(C)C)cc(C)c1CCNC(=O)c1ccc[n+]([O-])c1 ; retrieve measured IC50.
> 10 µM

Given Nc1ccc(SC(F)(F)F)cc1 , state its recorded IC50.
> 10 µM

Using the record for OCCCNc1nn2c(-c3ccccc3Cl)cnc2s1 , report its IC50.
> 10.7 µM

Name the recorded IC50 for COc1cccc(-c2noc(COC(=O)c3ccc(C)s3)n2)c1 .
> 10 µM

All values here come from ChEMBL document CHEMBL4483862.
